subject of test: Serine/threonine-protein phosphatase PP1-alpha catalytic subunit (Homo sapiens)
assay explanation: PP1 phosphatase inhibitors, confirmation, biochemical, fluorescence, OMFP substrate, triplicate (AID 2358)
measurement conditions: purified PP1alpha, at 6.7 µM
Among all 1,900 compounds or so, about 1,000 (53%) were called active.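 The calls were made as follows: active = mean PP1 inhibition above a set limit taken from the earlier primary screen (cut at about 15% in these data); inactive = the rest.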 The set was probably picked from earlier hits. Not all results are given here.
Result category, one only: t = active, f = inactive

State the result this test recorded for "O=C(Nc1nc(-c2ccco2)c(-c2ccco2)s1)c1ccco1" .
f

Answer briefly: the call reported for "COCCN(CCOC)S(=O)(=O)c1ccc(C(=O)Nc2nc3c(s2)CCc2ccccc2-3)cc1" in this assay.
t

What is the recorded call for this molecule in the test? "C=CCN(CC=C)S(=O)(=O)c1ccc(C(=O)Nc2nc3c(s2)CCc2ccccc2-3)cc1"
t

Please indicate how the test categorized "COc1ccccc1/C=N\Nc1cc(C)nc(-n2nc(C)cc2C)n1" .
t

Per the assay record, what outcome was assigned to "COc1cccc(/C=N/NC(=O)c2[nH]nc3c2CCc2ccccc2-3)c1O" ?
t

----------
subject of test: Serine/threonine-protein phosphatase PP1-alpha catalytic subunit (Homo sapiens)
assay explanation: PP1 phosphatase inhibitors, confirmation, biochemical, fluorescence, OMFP substrate, triplicate (AID 2358)
measurement conditions: purified PP1alpha, at 6.7 µM
In all, about 1,900 compounds went through this assay and about 1,000 (53%) were called active.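 How the source made its calls: active means mean PP1 inhibition above a set limit taken from the earlier primary screen (cut at about 15% in these data); inactive means the rest.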 So high a share suggests a set chosen from earlier hits. The list is a sample of the results.
Your answer must be one of the following: active, inactive

Hi, do you know how Cc1ccc(CSCC2Nc3ccc(C(=O)N4CCN(c5ccc(F)cc5)CC4)cc3NC2=O)cc1 (centres undefined) came out in this test?
active

Outcome logged for COc1ccc(C2C(C(C)=O)=C(O)C(=O)N2CCc2c[nH]c3ccccc23)cc1 (centres undefined) in this assay:
inactive

Name the outcome recorded for "C=CCn1c(=NC(=O)c2ccc(S(=O)(=O)N3CCCC3)cc2)sc2cc(NC(C)=O)ccc21" in the assay.
active

Give the logged outcome of this assay for the following molecule: Cc1cc(N2C(=O)C(O)=C(C(=O)c3ccc(C)o3)C2c2ccc(OCc3ccccc3)cc2)no1 (centres undefined)
active

Call for entry CC(C)OC(=O)c1cc(NC(=O)C2C3CCC(O3)C2C(=O)O)cc(C(=O)OC(C)C)c1 (centres undefined) :
inactive

Query: recorded result category for "OCCCN1c2ccccc2Nc2nnc(-c3ccccc3)cc21" in this test
active

Lab log entry: CCCOc1ccc(C2C(C(=O)c3ccc(C)o3)=C(O)C(=O)N2CCCn2ccnc2)cc1 (centres undefined) — outcome as called in the assay?
active

Answer briefly: the call reported for "Cc1ccc(Nc2nc(CSc3nnnn3-c3ccccc3)cc(=O)[nH]2)cc1" in this assay.
active

Answer briefly: the call reported for COc1cc(C2C(C(=O)c3ccc(C)o3)=C(O)C(=O)N2CCc2ccccc2)ccc1O (centres undefined) in this assay.
active

----------
subject of test: Serine/threonine-protein phosphatase PP1-alpha catalytic subunit (Homo sapiens) (UniProt P62136)
Sequence (P62136 whole entry, looked up): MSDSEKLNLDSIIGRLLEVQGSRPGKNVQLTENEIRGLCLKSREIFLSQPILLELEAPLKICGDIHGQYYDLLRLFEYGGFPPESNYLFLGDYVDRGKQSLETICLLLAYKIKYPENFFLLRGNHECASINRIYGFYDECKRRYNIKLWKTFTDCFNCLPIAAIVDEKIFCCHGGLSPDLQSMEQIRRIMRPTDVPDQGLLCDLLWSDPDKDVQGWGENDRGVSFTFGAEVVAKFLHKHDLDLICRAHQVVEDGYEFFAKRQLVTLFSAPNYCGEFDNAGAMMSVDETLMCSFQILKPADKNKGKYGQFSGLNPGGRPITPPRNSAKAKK
assay explanation: PP1 phosphatase inhibitors, confirmation, biochemical, fluorescence, OMFP substrate, triplicate (AID 2358)
measurement conditions: purified PP1alpha, at 6.7 µM
Out of some 1,900 compounds screened, about 1,000 (53%) were called active.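 How the source made its calls: active means mean PP1 inhibition above a set limit taken from the earlier primary screen (cut at about 15% in these data); inactive means the rest.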 The set was probably picked from earlier hits. The list is a sample of the results.
Outcome (select one): active, inactive

Given "Cc1ccc2cc(CCNC(=O)c3c(-c4ccccc4Cl)noc3C)c(=O)[nH]c2c1" , state the outcome it received in this test.
inactive

Record request — test call for Cc1ccc2nc(N3C(=O)C(O)=C(C(=O)c4ccco4)C3c3cccc(O)c3)sc2c1 (centres undefined)
active

Per the assay record, what outcome was assigned to "Cc1nc2c(C(=O)NCc3ccc4c(c3)OCO4)c[nH]n2c(=O)c1Cc1ccccc1F" ?
active

Hi, do you know how "CCCCCCCCCCOC(=O)Cn1c(COc2cccc(OC)c2)[n+](C)c2ccccc21" came out in this test?
inactive

Hello, I am checking results. What call was entered for "Cc1ccc(NC(=O)COc2ccc(/C=C3/NC(=O)NC3=O)cc2)cc1" ?
active

Called result for "O=C(CSc1nnc(C2CC2)n1Cc1ccccc1)Nc1cccnc1Cl"
inactive

Query: recorded result category for "O=[N+]([O-])c1ccccc1/C=N/n1c(COc2ccccc2)n[nH]c1=S" in this test
inactive

// param item: "CN(C(=O)CN(CCO)CC(=O)N(C)C(C)(C)Cc1ccccc1)C(C)(C)Cc1ccccc1" ; yields the recorded call
inactive

Write down the call the test reported for this compound. Item: "CCNS(=O)(=O)c1ccc(NC(=O)Nc2cccc(C(F)(F)F)c2)cc1"
inactive

Outcome logged for "O=C(Nc1ccc(S(=O)(=O)Nc2nccs2)cc1)c1cc(-c2ccncc2)nc2ccccc12" in this assay:
inactive

Assay result, entry "Cc1ccc(-n2nc3ccc(NC(=O)/C=C/c4ccco4)cc3n2)cc1C" — outcome?
inactive

Which outcome was entered for the compound "C#CCOCCOCCOCCNc1nc(N2CCN(C(=O)CCCCCCCCCCNC(=O)[C@H](CCCCN)n3cc(C)nn3)CC2)nc(N2CCN(C(=O)CCCCCCCCCCNC(=O)[C@H](CO)n3cc(CCCSC)nn3)CC2)n1" in this test?
active

Check the results log: what was the call for "CCC(=C/c1sc2ccc3ccccc3c2[n+]1C)/C=C1\Sc2ccc3ccccc3c2N1C" ?
active

How was O=C1C(=O)N(CC2COc3ccccc3O2)c2ccccc21 (centres undefined) classified in this test?
inactive

Look up the recorded call for C/C(CC(O)(/C=N/O)c1ccccc1)=N\O (centres undefined) in this test.
inactive

Tell me the recorded outcome of this test for "Cc1ccc(-c2cc(C(=O)N/N=C/C=C/c3ccco3)c3ccccc3n2)cc1C" .
inactive

Hello, I am checking results. What call was entered for "C#CCOCCOCCOCCNc1nc(N2CCN(C(=O)CCCCCCCCCCNC(=O)Cn3cc(CCCCCN)nn3)CC2)nc(N2CCN(C(=O)CCCCCCCCCCNC(=O)[C@H](CO)n3cc(CCCSC)nn3)CC2)n1" ?
active

Status in this test for "Cc1ccc(-c2cc(C(=O)Nc3nn[nH]n3)c3ccccc3n2)c(C)c1" ?
inactive

Write down the call the test reported for this compound. Item: "Oc1c(CN2CCN(c3ccc(F)cc3)CC2)cc(Cl)c2cccnc12"
active

----------
subject of test: Serine/threonine-protein phosphatase PP1-alpha catalytic subunit (Homo sapiens)
assay explanation: PP1 phosphatase inhibitors, confirmation, biochemical, fluorescence, OMFP substrate, triplicate (AID 2358)
measurement conditions: purified PP1alpha, at 6.7 µM
The whole screen tested about 1,900 compounds, of which about 1,000 (53%) were called active.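 The calls were made as follows: active = mean PP1 inhibition above a set limit taken from the earlier primary screen (cut at about 15% in these data); inactive = the rest.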 The set was probably picked from earlier hits. A selection follows.
The reply should be one of these categories: label 1 (active), label 0 (inactive)

For "CCOc1ccc(NC(=O)c2ccc(NC(=O)COC(=O)c3ccc(NC(=O)CC#N)cc3)cc2)cc1" , which call appears in the assay record?
label 1

What was the test verdict on "COc1cnc(-c2ccccn2)nc1Oc1ccc(C(C)(C)C)cc1" ?
label 1

Per the assay record, what outcome was assigned to Clc1ccc2c(c1)C1=C(C(c3ccncc3)O2)C(c2ccc(Br)cc2)n2ncnc2N1 (stereo not given) ?
label 1

Recorded test call requested for "Cc1ccccc1S(=O)(=O)N1[C@@H](c2cccc(Cl)c2)C(C(=O)O)=CC[C@H]1c1ccc(Cl)cc1"
label 1

Called result for O=C1C2N=NN(CC(=O)N3N=C(c4cccc5ccccc45)CC3c3ccccc3)C2C(=O)N1c1ccccc1 (stereo not given)
label 1

Could you check what this test reported for "CCCc1ccc(OCC(=O)NNC(=S)NC(=O)c2ccco2)cc1" ?
label 0

Each compound tested received a call. Report the one for "O=[N+]([O-])/C=C/c1ccc2c(ccn2Cc2ccccc2)c1" .
label 0

What classification did "Oc1c(Cl)cc(Cl)c(Cl)c1Cc1c(O)c(Cl)cc(Cl)c1Cl" end up with in this test?
label 1

# lookup: test call for "Clc1ccc(-n2nnnc2-c2cnc(-c3ccccn3)nc2-c2cccs2)cc1"
label 1

So what was the verdict on "CN1CCN(CCCNC(=O)c2ccc(/C=C3\Oc4ccccc4N(Cc4ccc(Cl)cc4)C3=O)cc2)CC1" in this test?
label 0

I would be grateful if you could indicate the recorded call for "CCn1c(SCC(=O)Nc2cc(C)ccc2C)nnc1-c1cnccn1" .
label 0

Recorded call for "Nc1ccc2nc3c(=O)[nH]c(=S)[nH]c3nc2c1" ?
label 1

Hi team, can someone confirm the assay call for "O=C(N/N=C/c1cc([N+](=O)[O-])ccc1O)/C(=C\c1cccs1)NC(=O)c1ccccc1" ?
label 1

What did this assay record as the result for CN(C(=O)COC(=O)c1cc(-c2ccco2)nc2ccccc12)C1CCS(=O)(=O)C1 (stereo not given) ?
label 1

Dear colleague, could you share the recorded outcome for "C/C(=N\c1nc2ccccc2n1C)c1cc(Cl)ccc1O" when you have a moment?
label 0

Answer briefly: the call reported for "Cc1ccc(NS(=O)(=O)c2ccc(N/N=C/c3ccccc3OCC(=O)O)c([N+](=O)[O-])c2)c(C)c1" in this assay.
label 1

Any idea what this test logged for "CCCCn1c(SCc2ncc(-c3ccccc3)o2)nc2cc(S(N)(=O)=O)ccc21" ?
label 0

Query: recorded result category for O=C1c2cccc(OCC(=O)N3N=C(c4cccs4)CC3c3ccc(F)cc3)c2CCN1Cc1ccccc1 (stereo not given) in this test
label 0

Hey, what did the test say about "Cc1ccc(C)c(Cn2nnc3c(=O)[nH]c(C(=O)Nc4ccc(F)cc4)nc32)c1" ?
label 1

Tell me the assay call for "Oc1ccc(C2Nc3cccc4cccc(c34)N2)cc1" please.
label 0
